Where these numbers come from: patent US9926281B2

As shown below, each of these molecules has a reported IC50 value.
subject.of.test: human ADAMTS-5 (Homo sapiens (Human))
condition.description: read-out: hADAMTS-5 potency IC50
// return the numeric value with its unit appended

C[C@H]1CN(C(=O)CCC2(C3CC3)NC(=O)NC2=O)CCN1c1ccc(F)c(Cl)c1 (stereo partly drawn) [compound 163]	40 nM
Cc1ccc(C2(CCC(=O)N3CCN(c4ccc(Cl)c(Cl)c4)[C@@H](C)C3)NC(=O)NC2=O)cn1 (stereo partly drawn) [compound 464]	26 nM
CCC1(CC(C)C(=O)N2CCN(c3cncc(F)c3)[C@@H](C)C2)NC(=O)NC1=O (stereo partly drawn) [compound 360]	119 nM
COC[C@]1(C[C@H](C)C(=O)N2CCN(c3cccc(-c4cn[nH]c4)c3)[C@@H](C)C2)NC(=O)NC1=O [compound 380]	47 nM
COC[C@]1(CC(C)C(=O)N2CCN(c3cc(F)cc(-c4cn[nH]c4)c3)[C@@H](C)C2)NC(=O)NC1=O (stereo partly drawn) [compound 376]	52 nM
COCC1(CC(C)C(=O)N2CCN(c3ccc(F)cc3)[C@@H](C)C2)NC(=O)NC1=O (stereo partly drawn) [compound 366]	36 nM

Req: What does the record list as IC50 for Cc1ccc(C2(CCC(=O)N3CCN(c4cc(Cl)cc(Cl)c4)[C@@H](C)C3)NC(=O)NC2=O)cn1 (stereo partly drawn) [compound 384] ?
Resp: 60 nM

Req: What does the record list as IC50 for C[C@H]1CN(C(=O)CCC2(C3CC3)NC(=O)NC2=O)CCN1c1cnc2ccn(C)c2c1 (stereo partly drawn) [compound 337] ?
Resp: 764 nM

Req: What does the record list as IC50 for C[C@H]1CN(C(=O)CCC2(c3cccnc3)NC(=O)NC2=O)CCN1c1ccc(Cl)c(F)c1 (stereo partly drawn) [compound 315] ?
Resp: 42 nM

* * *

As shown below, each of these compounds has a reported pIC50 value.
subject.of.test: human ADAMTS-5 (Homo sapiens (Human), UniProt Q9UNA0)
Sequence (Q9UNA0 262-930): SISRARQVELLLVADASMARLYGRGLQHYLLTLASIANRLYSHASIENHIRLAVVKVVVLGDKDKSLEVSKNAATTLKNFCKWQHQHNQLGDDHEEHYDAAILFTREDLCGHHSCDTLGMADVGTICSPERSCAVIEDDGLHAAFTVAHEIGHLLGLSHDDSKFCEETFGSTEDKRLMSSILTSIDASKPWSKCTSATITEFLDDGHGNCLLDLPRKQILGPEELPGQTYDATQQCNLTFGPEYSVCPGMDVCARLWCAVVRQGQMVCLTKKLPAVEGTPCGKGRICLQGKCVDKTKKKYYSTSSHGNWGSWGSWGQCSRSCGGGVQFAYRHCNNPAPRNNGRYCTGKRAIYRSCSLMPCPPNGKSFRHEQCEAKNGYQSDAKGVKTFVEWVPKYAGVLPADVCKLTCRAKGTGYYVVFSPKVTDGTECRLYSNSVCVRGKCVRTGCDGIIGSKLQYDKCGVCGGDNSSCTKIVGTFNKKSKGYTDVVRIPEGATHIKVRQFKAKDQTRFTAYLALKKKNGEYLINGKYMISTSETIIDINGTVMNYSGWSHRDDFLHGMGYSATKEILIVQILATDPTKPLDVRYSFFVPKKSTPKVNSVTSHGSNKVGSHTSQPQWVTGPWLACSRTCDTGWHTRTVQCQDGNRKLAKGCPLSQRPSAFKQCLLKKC
condition.description: read-out: hADAMTS-5 potency IC50
Please keep in mind that pIC50 is minus log10 of the molar concentration; only the number is needed.

Worked cases, pIC50 given:
O=C1NC(=O)C(CCC(=O)N2CCN(c3cccc(Cl)c3)CC2)(C2CCC2)N1 (stereo not drawn) [compound 70]	6.60
O=C1NC(=O)C(CCC(=O)N2CCN(c3ccc(Cl)cc3)CC2)(c2ccccc2)N1 (stereo not drawn) [compound 5]	7.11
CC1(CCC(=O)N2CCN(c3cncc(Cl)c3)CC2)NC(=O)NC1=O (stereo not drawn) [compound 85]	5.90

Req: What does the record list as pIC50 for Cc1ccccc1N1CCN(C(=O)CCC2(c3ccc(OCCN(C)C)cc3)NC(=O)NC2=O)CC1 (stereo not drawn) [compound 81] ?
Resp: 6.17

Req: What does the record list as pIC50 for CC1(CCC(=O)N2CCN(c3ccc(Cl)c(F)c3)CC2)NC(=O)NC1=O (stereo not drawn) [compound 49] ?
Resp: 6.90

Req: What does the record list as pIC50 for Cc1c(F)cccc1N1CCN(C(=O)CCC2(c3ccccn3)NC(=O)NC2=O)CC1 (stereo not drawn) [compound 100] ?
Resp: 6.73

Req: What does the record list as pIC50 for O=C1NC(=O)C(CCC(=O)N2CCN(c3ccc(Cl)c(F)c3)CC2)(c2ccccc2)N1 (stereo not drawn) [compound 10] ?
Resp: 7.25

Req: What does the record list as pIC50 for Cc1ccc(Cl)cc1N1CCN(C(=O)CCC2(C3CCCC3)NC(=O)NC2=O)CC1 (stereo not drawn) [compound 110] ?
Resp: 6.53
